- Tested on: XIP peptide (Xip251-270) binding
- assay_notes: XIP fragment 251-270 binding compounds – biochemical, small-molecule microarray, fluorescence 635/667 nm, 0.1 µg/mL protein, primary screen (AID 1182)
- applied_conditions: fluorescent protein binding, 635 nm, higher = more signal, called active from +8 up or from −8 down
readout: composite z-score

[[record]]
molecule = "COCC(=C=CC[C@@H](O)c1ccc(OCCO)cc1)C[C@@H](O)c1ccccn1"
system_name = "XIP peptide (Xip251-270) binding"
readout = "composite z-score"
test_value = 1.51

[[record]]
molecule = "COc1ccccc1CN1C(=O)c2ccccc2[C@@]2(Cc3ccccc3N(CCCN(C)C)C2=O)[C@@H]1c1ccc(CO)cc1"
system_name = "XIP peptide (Xip251-270) binding"
readout = "composite z-score"
test_value = 0.0228

[[record]]
molecule = "O[C@@H](Cc1ccccc1)[C@@H](/C=C/C1CC1)NCc1cccc(Cl)c1"
system_name = "XIP peptide (Xip251-270) binding"
readout = "composite z-score"
test_value = -0.58

[[record]]
molecule = "COCCOC(=O)N1C(=O)[C@@]2(c3cc(C#CCCO)ccc31)[C@H](c1ccc(O)cc1)N1[C@H](c3ccccc3)[C@H](c3ccccc3)OC(=O)[C@H]1[C@@H]2C(=O)N1CCN(c2ncccn2)CC1"
system_name = "XIP peptide (Xip251-270) binding"
readout = "composite z-score"
test_value = 0.729

[[record]]
molecule = "COc1ccc(NC(=O)O[C@H]2[C@H](OC(=O)c3cc4ccccc4[nH]3)[C@@H](OC(=O)c3cc4ccccc4[nH]3)[C@@H](OC)O[C@@H]2CO)cc1"
system_name = "XIP peptide (Xip251-270) binding"
readout = "composite z-score"
test_value = 1.54

[[record]]
molecule = "CCOC(=O)C1=CCC(c2ccc(F)cc2)N(S(=O)(=O)c2ccc(C)cc2)C1 (stereo not given)"
system_name = "XIP peptide (Xip251-270) binding"
readout = "composite z-score"
test_value = 0.428

[[record]]
molecule = "COCCOC(=O)N1C(=O)[C@@]2(c3cc(C#CC4=CCCCC4)ccc31)[C@H](c1ccc(OCCO)cc1)N1[C@H](c3ccccc3)[C@H](c3ccccc3)OC(=O)[C@H]1[C@@H]2C(=O)N1CCc2cc(OC)c(OC)cc2C1"
system_name = "XIP peptide (Xip251-270) binding"
readout = "composite z-score"
test_value = 0.411

[[record]]
molecule = "C=CC[C@]1(C(N)=O)COC(c2ccc(OCCCO)cc2)=N1"
system_name = "XIP peptide (Xip251-270) binding"
readout = "composite z-score"
test_value = -0.539

[[record]]
molecule = "O=C1NC(=O)C2C1C=CC(C(O)C=Cc1ccc([N+](=O)[O-])cc1)N2Nc1ccc(Cl)cc1Cl (stereo not given)"
system_name = "XIP peptide (Xip251-270) binding"
readout = "composite z-score"
test_value = 2.22

[[record]]
molecule = "COC(=O)c1c(CC[C@@H](CO)NC(=O)NCCc2c[nH]c3ccccc23)oc(C(=O)Cc2ccccc2)c1C(=O)OC"
system_name = "XIP peptide (Xip251-270) binding"
readout = "composite z-score"
test_value = 1.4

[[record]]
molecule = "O=C(CS)NCCCCCNC(=O)[C@H]1C[C@H]2C(=O)NCC(=O)N2[C@H]1c1ccc(O)cc1"
system_name = "XIP peptide (Xip251-270) binding"
readout = "composite z-score"
test_value = -0.344

[[record]]
molecule = "Cc1ccc(S[C@]2(C(=O)O)CC(=O)N(C(C)C)[C@@H]2c2ccc(CO)cc2)cc1"
system_name = "XIP peptide (Xip251-270) binding"
readout = "composite z-score"
test_value = 0.402

[[record]]
molecule = "O=C1N(CCS(=O)(=O)c2ccccc2)c2ccccc2[C@@H]2OC(c3ccc(OCCCO)cc3)=N[C@]12Cc1ccccc1"
system_name = "XIP peptide (Xip251-270) binding"
readout = "composite z-score"
test_value = 0.395

[[record]]
molecule = "COC(=O)C(CC#Cc1ccc2c(c1)[C@]1(C(=O)N2)[C@H](c2ccccc2OCCO)N2[C@H](c3ccccc3)[C@H](c3ccccc3)OC(=O)[C@H]2[C@@H]1C(=O)O)C(=O)OC"
system_name = "XIP peptide (Xip251-270) binding"
readout = "composite z-score"
test_value = 0.117

[[record]]
molecule = "CCOC(=O)C1=CC[C@@H](c2ccc(C(F)(F)F)cc2)N(S(=O)(=O)c2ccc(C)cc2)[C@H]1c1ccccc1"
system_name = "XIP peptide (Xip251-270) binding"
readout = "composite z-score"
test_value = 0.544


meta.source: PubChem BioAssay
